# targetOrSystem: rat α6/α3β4 nAChR (Rattus norvegicus, UniProt P04757+P12392+P43143)
# Sequence (P04757 whole entry, looked up): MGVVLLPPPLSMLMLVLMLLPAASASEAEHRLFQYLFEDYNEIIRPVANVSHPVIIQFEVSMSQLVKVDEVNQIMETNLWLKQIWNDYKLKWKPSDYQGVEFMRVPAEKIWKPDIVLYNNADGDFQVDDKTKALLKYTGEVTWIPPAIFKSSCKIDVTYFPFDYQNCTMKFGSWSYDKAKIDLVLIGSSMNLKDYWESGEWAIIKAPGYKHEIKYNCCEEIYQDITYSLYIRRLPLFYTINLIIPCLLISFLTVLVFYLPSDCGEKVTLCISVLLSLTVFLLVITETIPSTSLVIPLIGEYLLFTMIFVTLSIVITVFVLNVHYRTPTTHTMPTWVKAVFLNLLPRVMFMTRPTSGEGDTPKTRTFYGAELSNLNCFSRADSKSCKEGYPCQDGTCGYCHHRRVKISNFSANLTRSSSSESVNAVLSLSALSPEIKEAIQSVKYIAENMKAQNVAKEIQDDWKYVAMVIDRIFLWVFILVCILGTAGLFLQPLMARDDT
# Sequence (P12392 whole entry, looked up): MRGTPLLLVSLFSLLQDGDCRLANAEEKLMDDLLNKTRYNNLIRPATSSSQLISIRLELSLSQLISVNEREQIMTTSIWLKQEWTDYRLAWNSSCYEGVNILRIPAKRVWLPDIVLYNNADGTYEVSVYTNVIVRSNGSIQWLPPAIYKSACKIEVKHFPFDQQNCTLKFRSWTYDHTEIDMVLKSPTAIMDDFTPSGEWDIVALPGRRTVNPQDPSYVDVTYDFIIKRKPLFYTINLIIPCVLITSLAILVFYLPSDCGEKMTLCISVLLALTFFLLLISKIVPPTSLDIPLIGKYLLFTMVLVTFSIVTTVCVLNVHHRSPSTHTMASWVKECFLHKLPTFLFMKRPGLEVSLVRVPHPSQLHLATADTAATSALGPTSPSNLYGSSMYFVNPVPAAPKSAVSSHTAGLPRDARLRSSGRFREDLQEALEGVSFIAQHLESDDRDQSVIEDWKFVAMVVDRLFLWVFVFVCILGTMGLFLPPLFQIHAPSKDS
# Sequence (P43143 whole entry, looked up): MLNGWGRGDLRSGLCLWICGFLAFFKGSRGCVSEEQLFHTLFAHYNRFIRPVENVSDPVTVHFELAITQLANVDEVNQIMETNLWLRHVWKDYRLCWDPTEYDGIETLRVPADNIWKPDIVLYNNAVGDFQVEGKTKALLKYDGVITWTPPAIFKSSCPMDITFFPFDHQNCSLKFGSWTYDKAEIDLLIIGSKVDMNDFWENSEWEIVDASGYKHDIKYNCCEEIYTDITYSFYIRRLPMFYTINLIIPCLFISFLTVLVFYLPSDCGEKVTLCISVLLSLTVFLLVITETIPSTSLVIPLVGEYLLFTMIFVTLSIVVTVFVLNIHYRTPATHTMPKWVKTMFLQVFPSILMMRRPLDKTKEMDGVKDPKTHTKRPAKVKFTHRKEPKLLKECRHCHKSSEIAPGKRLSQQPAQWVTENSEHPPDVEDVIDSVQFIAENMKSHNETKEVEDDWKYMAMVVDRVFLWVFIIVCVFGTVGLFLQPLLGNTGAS
# protocolNotes: cell-based
# testConditions: α6/α3β4 IC50 (half-blocking dose)
pIC50: −log10 of the molar value. Peptide text beside a SMILES is read from it.
Recorded pIC50 for the following molecules

molecule	operator	pIC50
CC[C@H](C)[C@@H]1NC(=O)[C@@H]2CCCN2C(=O)[C@H](Cc2ccc(O)cc2)NC(=O)[C@H](CCSC)NC(=O)[C@H](C)NC(=O)[C@H](CO)NC(=O)[C@@H]2CSSC[C@H](NC(=O)CN)C(=O)N[C@@H](CSSC[C@@H](C(N)=O)NC1=O)C(=O)N[C@@H](CO)C(=O)N[C@@H](Cc1c[nH]cn1)C(=O)N1CCC[C@H]1C(=O)N[C@@H](C(C)C)C(=O)N2 [TxID[S12Y]] (HELM PEPTIDE1{G.C.C.S.H.P.V.C.S.A.M.Y.P.I.C.[am]}$PEPTIDE1,PEPTIDE1,2:R3-8:R3|PEPTIDE1,PEPTIDE1,3:R3-15:R3$$$V2.0)	=	7.47
CC[C@H](C)[C@@H]1NC(=O)[C@@H]2CCCN2C(=O)[C@H](CO)NC(=O)[C@H](CCSC)NC(=O)[C@H](C)NC(=O)[C@H](CO)NC(=O)[C@@H]2CSSC[C@H](NC(=O)CN)C(=O)N[C@@H](CSSC[C@@H](C(N)=O)NC1=O)C(=O)N[C@@H](CO)C(=O)N[C@@H](Cc1c[nH]cn1)C(=O)N[C@@H](C)C(=O)N[C@@H](C(C)C)C(=O)N2 [TxID[P6A]] (HELM PEPTIDE1{G.C.C.S.H.A.V.C.S.A.M.S.P.I.C.[am]}$PEPTIDE1,PEPTIDE1,2:R3-8:R3|PEPTIDE1,PEPTIDE1,3:R3-15:R3$$$V2.0)	<	5.00

----------
# targetOrSystem: α6/α3β4 acetylcholine receptor subtype (Rattus norvegicus, UniProt P04757+P12392+P43143)
# Sequence (P43143+P04757 fused with the stated changes): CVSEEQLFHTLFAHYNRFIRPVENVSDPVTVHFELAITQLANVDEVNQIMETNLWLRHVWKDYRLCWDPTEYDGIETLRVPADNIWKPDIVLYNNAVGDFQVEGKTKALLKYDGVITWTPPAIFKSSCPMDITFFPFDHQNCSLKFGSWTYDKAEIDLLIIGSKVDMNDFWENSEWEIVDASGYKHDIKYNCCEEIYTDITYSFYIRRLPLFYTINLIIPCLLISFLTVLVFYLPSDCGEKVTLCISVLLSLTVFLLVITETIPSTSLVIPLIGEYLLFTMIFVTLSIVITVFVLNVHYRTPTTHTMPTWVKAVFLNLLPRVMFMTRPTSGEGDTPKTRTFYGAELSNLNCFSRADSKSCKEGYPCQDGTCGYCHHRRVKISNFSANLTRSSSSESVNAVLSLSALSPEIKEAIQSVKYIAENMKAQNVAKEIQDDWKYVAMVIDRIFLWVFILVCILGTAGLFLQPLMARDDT
# Sequence (P12392 21-495): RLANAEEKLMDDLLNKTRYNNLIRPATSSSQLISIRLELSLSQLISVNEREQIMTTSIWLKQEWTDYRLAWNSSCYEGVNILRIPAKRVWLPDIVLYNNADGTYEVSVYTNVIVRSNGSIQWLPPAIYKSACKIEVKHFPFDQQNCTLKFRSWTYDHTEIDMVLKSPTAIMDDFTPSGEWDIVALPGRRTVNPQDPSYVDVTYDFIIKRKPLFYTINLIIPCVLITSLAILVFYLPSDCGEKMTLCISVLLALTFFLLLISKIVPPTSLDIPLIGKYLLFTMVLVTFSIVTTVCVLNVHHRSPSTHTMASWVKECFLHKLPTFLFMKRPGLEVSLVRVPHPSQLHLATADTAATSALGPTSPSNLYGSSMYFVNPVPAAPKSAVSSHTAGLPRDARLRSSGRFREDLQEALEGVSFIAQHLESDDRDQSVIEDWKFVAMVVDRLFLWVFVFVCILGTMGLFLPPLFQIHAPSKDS
# Format: cell-based
Recorded Discrimination for the following substances

substance | Discrimination
GCCSHPACNVNNPHIC* [RegIIA] | 3.1
GCCSHPACSVNHPELC* [PeIA] | 3.1
GCCSTPPCAVLYC* [BuIA] | 13.2
GCCSHPACNVAAPHIC* [RegIIA[N11, 12 A]] | 13.8
RDPCCSNPVCTVHNPQIC* [PIA] | 17.3

----------
# targetOrSystem: rat α6/α3β4 nAChR (Rattus norvegicus, UniProt P04757+P12392+P43143)
# protocolNotes: cell-based
Peptide text beside a SMILES is read from it.
testReadout: IC50 ratio of α6/α3β4 vs. α3β4 (Discrimination)

compound	val
CSCC[C@@H]1NC(=O)[C@H](C)NC(=O)[C@H](CO)NC(=O)[C@@H]2CSSC[C@H](NC(=O)CN)C(=O)N[C@@H](CSSC[C@@H](C(N)=O)NC(=O)[C@H](Cc3ccc(O)cc3)NC(=O)[C@@H]3CCCN3C(=O)[C@H](CO)NC1=O)C(=O)N[C@@H](CO)C(=O)N[C@@H](Cc1c[nH]cn1)C(=O)N1CCC[C@H]1C(=O)N[C@@H](C(C)C)C(=O)N2 [TxID[I14Y]] (HELM PEPTIDE1{G.C.C.S.H.P.V.C.S.A.M.S.P.Y.C.[am]}$PEPTIDE1,PEPTIDE1,2:R3-8:R3|PEPTIDE1,PEPTIDE1,3:R3-15:R3$$$V2.0)	3.9
CC[C@H](C)[C@@H]1NC(=O)[C@@H]2CCCN2C(=O)[C@H](C)NC(=O)[C@H](CCSC)NC(=O)[C@H](C)NC(=O)[C@H](CO)NC(=O)[C@@H]2CSSC[C@H](NC(=O)CN)C(=O)N[C@@H](CSSC[C@@H](C(N)=O)NC1=O)C(=O)N[C@@H](CO)C(=O)N[C@@H](Cc1c[nH]cn1)C(=O)N1CCC[C@H]1C(=O)N[C@@H](C(C)C)C(=O)N2 [TxID[S12A]] (HELM PEPTIDE1{G.C.C.S.H.P.V.C.S.A.M.A.P.I.C.[am]}$PEPTIDE1,PEPTIDE1,2:R3-8:R3|PEPTIDE1,PEPTIDE1,3:R3-15:R3$$$V2.0)	2.3
CC[C@H](C)[C@@H]1NC(=O)[C@@H]2CCCN2C(=O)[C@H](CO)NC(=O)[C@H](CC(C)C)NC(=O)[C@H](C)NC(=O)[C@H](C)NC(=O)[C@@H]2CSSC[C@H](NC(=O)CN)C(=O)N[C@@H](CSSC[C@@H](C(N)=O)NC1=O)C(=O)N[C@@H](CO)C(=O)N[C@@H](Cc1c[nH]cn1)C(=O)N1CCC[C@H]1C(=O)N[C@@H](C(C)C)C(=O)N2 [TxID[S9A, M11I]] (HELM PEPTIDE1{G.C.C.S.H.P.V.C.A.A.L.S.P.I.C.[am]}$PEPTIDE1,PEPTIDE1,2:R3-8:R3|PEPTIDE1,PEPTIDE1,3:R3-15:R3$$$V2.0)	0.3

----------
# targetOrSystem: rat α3β4 nAChR (Rattus norvegicus, UniProt P04757+P12392)
# Sequence (P04757 26-499 limits assumed, one chain of several): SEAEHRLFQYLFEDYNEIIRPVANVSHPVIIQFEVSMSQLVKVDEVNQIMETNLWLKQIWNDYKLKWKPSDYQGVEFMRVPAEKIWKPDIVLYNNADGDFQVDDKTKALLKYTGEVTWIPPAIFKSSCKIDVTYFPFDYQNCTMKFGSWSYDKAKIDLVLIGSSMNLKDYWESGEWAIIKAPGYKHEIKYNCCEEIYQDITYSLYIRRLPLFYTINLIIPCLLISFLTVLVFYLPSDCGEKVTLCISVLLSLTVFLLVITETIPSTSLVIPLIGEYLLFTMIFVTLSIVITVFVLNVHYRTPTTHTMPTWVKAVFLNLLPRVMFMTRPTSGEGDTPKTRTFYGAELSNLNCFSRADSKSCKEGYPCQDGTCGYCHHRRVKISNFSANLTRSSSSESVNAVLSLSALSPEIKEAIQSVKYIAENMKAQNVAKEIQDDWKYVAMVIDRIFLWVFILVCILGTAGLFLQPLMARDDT
# protocolNotes: cell-based
# testConditions: α3β4 IC50 (half-blocking dose)
pIC50: −log10 of the molar value. Peptide text beside a SMILES is read from it.
Recorded pIC50 for the following compounds
testReadout: pIC50

compound	targetOrSystem	val
CSCC[C@@H]1NC(=O)[C@H](C)NC(=O)[C@H](CO)NC(=O)[C@@H]2CSSC[C@H](NC(=O)CN)C(=O)N[C@@H](CSSC[C@@H](C(N)=O)NC(=O)[C@H](CCCNC(=N)N)NC(=O)[C@@H]3CCCN3C(=O)[C@H](CO)NC1=O)C(=O)N[C@@H](CO)C(=O)N[C@@H](Cc1c[nH]cn1)C(=O)N1CCC[C@H]1C(=O)N[C@@H](C(C)C)C(=O)N2 [TxID[I14R]] (HELM PEPTIDE1{G.C.C.S.H.P.V.C.S.A.M.S.P.R.C.[am]}$PEPTIDE1,PEPTIDE1,2:R3-8:R3|PEPTIDE1,PEPTIDE1,3:R3-15:R3$$$V2.0)	rat α3β4 nAChR (Rattus norvegicus, UniProt P04757+P12392)	8.04
CC[C@H](C)[C@@H]1NC(=O)[C@@H]2CCCN2C(=O)[C@H](CO)NC(=O)[C@H](CCSC)NC(=O)[C@H](C)NC(=O)[C@H](Cc2cnc[nH]2)NC(=O)[C@@H]2CSSC[C@H](NC(=O)CN)C(=O)N[C@@H](CSSC[C@@H](C(N)=O)NC1=O)C(=O)N[C@@H](CO)C(=O)N[C@@H](Cc1cnc[nH]1)C(=O)N1CCC[C@H]1C(=O)N[C@@H](C(C)C)C(=O)N2 [TxID[S9H]] (HELM PEPTIDE1{G.C.C.S.H.P.V.C.H.A.M.S.P.I.C.[am]}$PEPTIDE1,PEPTIDE1,2:R3-8:R3|PEPTIDE1,PEPTIDE1,3:R3-15:R3$$$V2.0)	rat α3β4 nAChR (Rattus norvegicus, UniProt P04757+P12392)	8.58
CC[C@H](C)[C@@H]1NC(=O)[C@@H]2CCCN2C(=O)[C@H](CO)NC(=O)[C@H](CCSC)NC(=O)[C@H](C)NC(=O)[C@H](Cc2ccccc2)NC(=O)[C@@H]2CSSC[C@H](NC(=O)CN)C(=O)N[C@@H](CSSC[C@@H](C(N)=O)NC1=O)C(=O)N[C@@H](CO)C(=O)N[C@@H](Cc1cnc[nH]1)C(=O)N1CCC[C@H]1C(=O)N[C@@H](C(C)C)C(=O)N2 [TxID[S9F]] (HELM PEPTIDE1{G.C.C.S.H.P.V.C.F.A.M.S.P.I.C.[am]}$PEPTIDE1,PEPTIDE1,2:R3-8:R3|PEPTIDE1,PEPTIDE1,3:R3-15:R3$$$V2.0)	rat α3β4 nAChR (Rattus norvegicus, UniProt P04757+P12392)	7.86

----------
# targetOrSystem: rat α6/α3β4 nAChR (Rattus norvegicus, UniProt P04757+P12392+P43143)
# protocolNotes: cell-based
# testConditions: α6/α3β4 IC50 (half-blocking dose)
pIC50: −log10 of the molar value. Peptide text beside a SMILES is read from it.

compound	operator	pIC50
CSCC[C@@H]1NC(=O)[C@H](C)NC(=O)[C@H](CO)NC(=O)[C@@H]2CSSC[C@H](NC(=O)CN)C(=O)N[C@@H](CSSC[C@@H](C(N)=O)NC(=O)[C@H](C)NC(=O)[C@@H]3CCCN3C(=O)[C@H](CO)NC1=O)C(=O)N[C@@H](CO)C(=O)N[C@@H](Cc1c[nH]cn1)C(=O)N1CCC[C@H]1C(=O)N[C@@H](C(C)C)C(=O)N2 [TxID[I14A]] (HELM PEPTIDE1{G.C.C.S.H.P.V.C.S.A.M.S.P.A.C.[am]}$PEPTIDE1,PEPTIDE1,2:R3-8:R3|PEPTIDE1,PEPTIDE1,3:R3-15:R3$$$V2.0)	=	7.34
CC[C@H](C)[C@@H]1NC(=O)[C@@H]2CCCN2C(=O)[C@H](CO)NC(=O)[C@H](CCSC)NC(=O)[C@H](C)NC(=O)[C@H](Cc2cnc[nH]2)NC(=O)[C@@H]2CSSC[C@H](NC(=O)CN)C(=O)N[C@@H](CSSC[C@@H](C(N)=O)NC1=O)C(=O)N[C@@H](CO)C(=O)N[C@@H](Cc1cnc[nH]1)C(=O)N1CCC[C@H]1C(=O)N[C@@H](C(C)C)C(=O)N2 [TxID[S9H]] (HELM PEPTIDE1{G.C.C.S.H.P.V.C.H.A.M.S.P.I.C.[am]}$PEPTIDE1,PEPTIDE1,2:R3-8:R3|PEPTIDE1,PEPTIDE1,3:R3-15:R3$$$V2.0)	=	7.83
CC[C@H](C)[C@@H]1NC(=O)[C@H](C)NC(=O)[C@H](CO)NC(=O)[C@H](CCSC)NC(=O)[C@H](C)NC(=O)[C@H](CO)NC(=O)[C@@H]2CSSC[C@H](NC(=O)CN)C(=O)N[C@@H](CSSC[C@@H](C(N)=O)NC1=O)C(=O)N[C@@H](CO)C(=O)N[C@@H](Cc1c[nH]cn1)C(=O)N1CCC[C@H]1C(=O)N[C@@H](C(C)C)C(=O)N2 [TxID[P13A]] (HELM PEPTIDE1{G.C.C.S.H.P.V.C.S.A.M.S.A.I.C.[am]}$PEPTIDE1,PEPTIDE1,2:R3-8:R3|PEPTIDE1,PEPTIDE1,3:R3-15:R3$$$V2.0)	<	5.00
